- Test Method Notes: yeast display, Sf9 membrane polyspecificity reagent, FACS + sequencing; frameworks hold sequencing errors
Measurement Type: polyreactivity (PSR sort gate)

Examples with their reported polyreactivity (PSR sort gate) follow.
Query: Returns the measured polyreactivity (PSR sort gate) for the input sequence. Input: QVQLVESGGGLVQAGGSLRLSSAASGSIFGVNAMGVYRQAPGKERELVASITGGDSTNYADSVKGRFTISRDNAKNTVYFQMNSLKPEDTAVYYCAKDHYYRYCAAEFVTEYLYGFVYEYDSWGQGTQVTVSS
Result: low polyreactivity

Query: Query (sequence): QVQLVESGGGLVQAGGSLRLSCAASGYIFFNYGMGWYRQAPGKERELVAASTTIDGTTYYADSVKGRFTISRDNAKHTVYLQMNSLKPEDTAVYYCNADLYWLWYGEFDYWGQGTQVTVSS ; field requested: polyreactivity (PSR sort gate)
Result: high polyreactivity

Query: // lookup polyreactivity (PSR sort gate) for QVQLVESGGGLVQAGGSLRLSCAASGSIFPRNAMGWYRQAPGKERELVAAITTTGGITHYADSVKGRFTISRDNAKNTVYLLMNSLKPEDTAVYYCNASYEYNAGRVETEYDYWGQGTKVTVSS
Result: low polyreactivity

Query: Requested field: polyreactivity (PSR sort gate). Item: QVQLVESGGGLVQAGGSLRLSCAASGSTFIVNAMGWYRQAPGKERELVAAISRSGSDTYYADSVKGRFTISRDNAKNTVYLQMNSLKPEDTAVYYCAARWSYRSLARYNYWGQGTQVTVSS
Result: low polyreactivity

Query: I'd like to know its polyreactivity (PSR sort gate). The sequence in question is QVQLQESGRRPGAAGGSPRMSCAASGNIFWVAVMGRYRQAPGKERELVASIGFGCTTYYADSVKCRFTISRDNAKNTVYLQMISLKPEDTAVYYCAAPHYDWGEIDYWGQGTQVPVSS
Result: low polyreactivity

Query: If you can, please state the reported polyreactivity (PSR sort gate) value of QVQLEESGGGLVQAGGSLRLIWAASGFIFRTYTMGWYRQAPGKERELVATIDSSGGSTYYADSVKGRFTISRDNAKNTVYLQMNSLKPEDTAVYYCNADLRELSPWYWYSGEMDYWGQGTQVTVSS .
Result: low polyreactivity

Query: Could you tell me which polyreactivity (PSR sort gate) is on file for QVQLVESGGGLVQAGGSLRLSCAASGITFRKYAMGWYRQAPGKERELVAGIRRGGSTYYADSVKGRFTISRDNAKNTVYLQMNSLKPEDTAVYYCATRARYKRIRYDYWGQGTQVTVSS ?
Result: high polyreactivity

Query: For the sequence shown here, QVQLVESGGGLVQAGGSLRLSCAASGSTFHSYVMGWYREAPGIERELVAAITSRGGSTNYADSVKGRFTISRDNAKNTVYFQMNSLKPEDTAVYYCAAEWLYPLDGGYPRPMDYWGQGTQVTVSS , give the reported polyreactivity (PSR sort gate).
Result: low polyreactivity

Query: Need polyreactivity (PSR sort gate), item QVQLLESGGRLVQAGGSLRLSCMASGSILGDRMSWYRQAPGKEHELVATIYDGGITYYADSMKGRFTISRDNAKNTVYLQMNSLRPEDTAVYYCGASFEGYRYHVYCGQGTQVTVSS
Result: low polyreactivity

Query: What polyreactivity (PSR sort gate) value was documented for this sequence, QVQLVESGGGLVQAGGRLRISCAASGSIFKGYARGWSRQGPGKERELVAAISGSGTSTYYADSVKGRFTISRDNAKNTVYLQMNSLTPEDTAVYYCATGWYTVFSRRMYSWGQGTQVTVSS ?
Result: high polyreactivity

Further cases:
Query: Which polyreactivity (PSR sort gate) reading was recorded for the sequence QVQLVESGGGLVQAGGSLRLSCAASGRIFRSYAMGWYRQAPGKERELVAAITWSGGSTYYADSVKGRFTISRDNAKNTVYLQMHSLKPEDTAVYYCARVVTKKYSHTGYEYWGQGTQVTVSS ?
Result: high polyreactivity

Hello, the source for this data is the nanobody polyreactivity screen of Harvey et al. (2022), in case you need it.
